The reported numbers originate from paper PMC2248166.

Molecular target: H-2 D^b (Mus musculus)
Sequence (P01887 21-119): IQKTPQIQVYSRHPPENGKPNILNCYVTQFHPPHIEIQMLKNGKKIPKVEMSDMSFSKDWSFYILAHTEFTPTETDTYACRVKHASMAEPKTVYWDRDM
Sequence (P01899 25-362): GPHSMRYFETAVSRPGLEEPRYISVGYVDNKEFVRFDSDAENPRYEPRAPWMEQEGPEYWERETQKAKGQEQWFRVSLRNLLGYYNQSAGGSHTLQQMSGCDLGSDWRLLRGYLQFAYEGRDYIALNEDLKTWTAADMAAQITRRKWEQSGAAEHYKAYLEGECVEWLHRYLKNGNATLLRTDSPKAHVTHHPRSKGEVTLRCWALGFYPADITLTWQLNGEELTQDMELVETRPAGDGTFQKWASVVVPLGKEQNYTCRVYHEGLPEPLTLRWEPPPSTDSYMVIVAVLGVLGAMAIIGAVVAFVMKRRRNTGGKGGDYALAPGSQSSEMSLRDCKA
Assay type: binding
Class assignment keyed on Normalized average relative binding affinity(ARB), ranges Low (below 0.1), Mid (0.1 to below 0.5), High (0.5 or more)

                    chain  class_assignment
 0  XXXXWXXXX [3064.0099]               Low
 1  XXXXXXXQX [3064.0154]               Mid
 2  XXXGXXXXX [3064.0066]               Low
 3  XXXXXXIXX [3064.0128]               Mid
 4  XXXXXXPXX [3064.0133]               Mid
 5  XXXXXXYXX [3064.0140]              High
 6  XXXLXXXXX [3064.0070]              High
 7  XXXXXNXXX [3064.0112]              High
 8  XXXPXXXXX [3064.0073]               Mid
 9  XXXXQXXXX [3064.0094]               Low
10  XXXXXXGXX [3064.0126]               Mid
11  XXXXXXXRX [3064.0155]               Low
12  XXXXXXAXX [3064.0121]              High
13  XXXXXXXLX [3064.0150]               Mid
14  XXXXXSXXX [3064.0116]              High
15  XXXXTXXXX [3064.0097]               Low
16  XXXXRXXXX [3064.0095]               Low
17  XXXXXXXGX [3064.0146]               Low
18  XXXXXXXTX [3064.0157]               Mid
19  XXXXXXNXX [3064.0132]               Mid
20  XXXXXEXXX [3064.0104]               Mid
21  XXXNXXXXX [3064.0072]               Mid
22  XXXXXXXFX [3064.0145]              High
23  XXXTXXXXX [3064.0077]              High
24  XXXXCXXXX [3064.0082]               Low
25  XXXXXXXIX [3064.0148]               Mid
26  XXXXXXXCX [3064.0142]               Mid
27  XXXSXXXXX [3064.0076]              High
28  XXXXXHXXX [3064.0107]               Mid
29  XXXXVXXXX [3064.0098]               Low
